- System: Hek293T
- methodSummary: Primary qHTS to identify gynecologic anti-cancer compounds using libraries of approved drugs and bioactive compounds (AID 1345084); also: % is scaled to controls: 0 for no effect and ±100 for the full control effect; nearly all actives have a fitted effect of over 55% in size
- conditionNotes: Gynecologic cancer cell panel viability, ATPlite luminescence, 48 h, control line for the selectivity index; series mostly up to 57.5 µM
Records with an inconclusive call do not appear. Active and inactive are the calls of the source. Calls follow the shape of the dose curve; as a rule, active = well fitted cell-killing curve with a large enough effect; inconclusive = small, poorly fitted or top-dose-only effect, or effect the other way; inactive = flat fitted curve, though single readings scatter.

>  <molecule>
COC(=O)[C@@]1(C)CC[C@]2(C(=O)O[C@@H]3O[C@H](CO)[C@@H](O)[C@H](O)[C@H]3O)CC[C@]3(C)C(=CCC4[C@@]5(C)CC[C@H](O[C@@H]6O[C@H](C(=O)O)[C@@H](O)[C@H](O)[C@H]6O)C(C)(C)C5CC[C@]43C)[C@@H]2C1 (some centres undefined)

>  <activity change, negative = cytotoxicity>
-3.38% [at 11.6 µM] (inactive)

$$$$
>  <molecule>
C[C@]12C=CC(=O)C=C1CC[C@@H]1[C@@H]2[C@@H](O)C[C@@]2(C)[C@H]1CC[C@]2(O)C(=O)COC(=O)CCC(=O)O

>  <activity change, negative = cytotoxicity>
inactive

$$$$
>  <molecule>
CCCCCCc1cccc(NC(=O)[C@H](N)CCP(=O)(O)O)c1

>  <activity change, negative = cytotoxicity>
-0.817% [at 11.6 µM] (inactive)

$$$$
>  <molecule>
CNC(=O)c1ccc2cc([C@@]3(O)CCn4cncc43)ccc2c1

>  <activity change, negative = cytotoxicity>
inactive

$$$$

###

- Tested on: CRL-7250
- methodSummary: Cytotoxic Profiling of Annotated Libraries Using Quantitative High-Throughput Screening (AID 1296008); also: % is scaled to controls: 0 for no effect and ±100 for the full control effect; nearly all actives have a fitted effect of over 60% in size
- conditionNotes: Five cell lines viability, CellTiter-Glo ATP luminescence, 48-72 h; active compounds read low
Inconclusive results are not listed.
outcomeMeasure: max response (%)
Numbers only; they are read as %.

Known max response results, listed for orientation:
>  <compound>
CC[C@H]1OC(=O)C[C@@H](O)[C@H](C)[C@@H](O[C@@H]2O[C@H](C)[C@@H](O)[C@H](N(C)C)[C@H]2O)[C@@H](CCN2C[C@H](C)C[C@H](C)C2)C[C@@H](C)C(=O)/C=C/C(C)=C/[C@@H]1CO[C@@H]1O[C@H](C)[C@@H](O)[C@@H](OC)[C@H]1OC

>  <number>
1.46

$$$$
>  <compound>
COC12CC3C(C(C)C1=CC(=O)O2)C(O)C(OC(C)=O)C1C(C)(C)C(OC(C)=O)CCC31C (stereo not drawn)

>  <number>
0.349

$$$$
>  <compound>
COC1=CC(=O)O[C@@H](CCc2ccccc2)[C@@H]1O

>  <number>
-14.6

$$$$
>  <compound>
CC1=C2[C@@H]([C@H](C)CC[C@H]2/C=C(\C)C(=O)O)[C@H](O)C1

>  <number>
0.252

$$$$
>  <compound>
CC(=O)O[C@H]1[C@H](Oc2ccccc2COC(=O)C2(O)C=CCCC2=O)O[C@H](CO)[C@@H](O)[C@@H]1O (stereo partly drawn)

>  <number>
3.12

$$$$

Ask: # get_value(readout='max response', item= CC(=O)OC(C)OC(=O)C(C)c1ccc(-c2ccccc2)c(F)c1 (stereo not drawn) )
Result: -4.19

Ask: Likewise for COC1CC(=O)CCC(C)OC(=O)CC1O (stereo not drawn) ?
Result: -4.48

Ask: Please answer likewise for C=C1CCC2C(C)(C(=O)O)CC(O)CC2(C)C1CC/C(C)=C/C(=O)O (stereo not drawn)
Result: -3.85
